PARTICULARS: in n-hexanol, 293.15 K
READOUT LABEL: solubility (mole fraction)
Give bare numbers.

molecule O=C(O)c1ccccc1O , solubility (mole fraction) observed: 0.146

* * *

PARTICULARS: in n-butanol, 303.15 K
READOUT LABEL: solubility (mole fraction)
Answers are plain numbers.

Sample O=C(O)c1ccccc1O ; solubility (mole fraction) observed: 0.16

* * *

PARTICULARS: in n-hexanol, 303.15 K
READOUT LABEL: solubility (mole fraction)
Numbers only.

// sample O=C(O)c1ccccc1O , its solubility (mole fraction) was 0.169

* * *

PARTICULARS: in n-hexanol, 298.15 K
READOUT LABEL: solubility (mole fraction)
Give bare numbers.

Input O=C(O)c1ccccc1O . Output solubility (mole fraction): 0.158

Data origin, for the record: BigSolDB 2.1
